pKi: −log10 of the molar value.
Dear all, this message contains pKi results, target or system Metabotropic glutamate receptor 2 (Homo sapiens, UniProt Q14416).
observed.property: pKi

molecule: N[C@H](CP(=O)(O)O)C(=O)O [CAS_23052-80-4]
target: Metabotropic glutamate receptor 2 (Homo sapiens, UniProt Q14416)
Sequence (Q14416 whole entry): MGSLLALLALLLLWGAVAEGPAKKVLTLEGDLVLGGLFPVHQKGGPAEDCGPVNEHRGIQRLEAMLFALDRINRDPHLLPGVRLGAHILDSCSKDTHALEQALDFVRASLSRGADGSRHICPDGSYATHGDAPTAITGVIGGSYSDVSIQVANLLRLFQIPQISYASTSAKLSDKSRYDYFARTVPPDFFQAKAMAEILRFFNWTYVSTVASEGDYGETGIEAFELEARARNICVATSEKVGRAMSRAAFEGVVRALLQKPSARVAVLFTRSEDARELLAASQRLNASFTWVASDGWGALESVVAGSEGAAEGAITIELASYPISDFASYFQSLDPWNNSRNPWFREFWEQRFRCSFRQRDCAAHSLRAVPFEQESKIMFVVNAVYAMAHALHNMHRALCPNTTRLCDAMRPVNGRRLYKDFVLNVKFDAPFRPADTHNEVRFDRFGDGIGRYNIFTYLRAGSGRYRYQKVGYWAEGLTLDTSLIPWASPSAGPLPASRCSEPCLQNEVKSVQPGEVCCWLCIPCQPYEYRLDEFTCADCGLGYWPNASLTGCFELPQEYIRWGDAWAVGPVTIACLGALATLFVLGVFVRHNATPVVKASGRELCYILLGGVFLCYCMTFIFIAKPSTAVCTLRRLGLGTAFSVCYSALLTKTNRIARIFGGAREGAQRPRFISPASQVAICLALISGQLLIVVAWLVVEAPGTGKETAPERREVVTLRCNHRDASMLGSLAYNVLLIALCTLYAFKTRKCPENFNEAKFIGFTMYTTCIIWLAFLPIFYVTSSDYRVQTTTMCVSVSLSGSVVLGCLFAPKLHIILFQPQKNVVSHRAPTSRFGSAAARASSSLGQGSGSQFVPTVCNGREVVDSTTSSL
observed.measurement: 6.58
--
molecule: N[C@@]1(C(=O)O)CC[C@H](C(=O)O)C1 [1S, 3R-ACPD]
target: Metabotropic glutamate receptor 2 (Homo sapiens, UniProt Q14416)
observed.measurement: 8.03
--
molecule: N[C@H](C(=O)O)C1[C@@H](C(=O)O)[C@@H]1C(=O)O (stereo partly specified) [DCG-IV]
target: Metabotropic glutamate receptor 2 (Homo sapiens, UniProt Q14416)
observed.measurement: 9.43
--
molecule: N[C@@H](CCP(=O)(O)O)C(=O)O
target: Metabotropic glutamate receptor 2 (Homo sapiens, UniProt Q14416)
observed.measurement: 6.17
--
molecule: N[C@@H](Cn1oc(=O)[nH]c1=O)C(=O)O
target: Metabotropic glutamate receptor 2 (Homo sapiens, UniProt Q14416)
observed.measurement: 6.75
--
molecule: CCC(N)(CCC(=O)O)C(=O)O (stereo unspecified) [CAS_5311079]
target: Metabotropic glutamate receptor 2 (Homo sapiens, UniProt Q14416)
observed.measurement: 6.42
